Answer each item with its documented log10(LC50).
Tested on: CNS carcinoma cell
Assay: Lethal concentration was determined against CNS cancer cell line
Assay type: functional
Conditions: Homo sapiens
Please interpret these as log10 of LC50 where LC50 is in µM.

CC(=O)NC1=C(C)C(=O)c2c(nc3n2CCC3OC(C)=O)C1=O (stereo not given) :: 1.40

The following compounds each have a reported value; give each one's log10(LC50).
1. Cn1c(CCl)nc2c1C(=O)c1c(nc(CCl)n1C)C2=O
2. CC(=O)OC1CCn2c1nc1c2C(=O)c2c(nc3n2CCC3OC(C)=O)C1=O (stereo not given)
3. O=C1c2nc3n(c2C(=O)c2c1nc1n2CCC1)CCC3

1: 0.70; 2: 0.50; 3: 1.80

// log10(LC50) lookup, key: Cc1nc2c(n1C)C(=O)c1c(nc(CCl)n1C)C2=O
1.20

###

Tested on: NSCLC
Assay: Lethal concentration was determined against NSC lung cancer cell line
Type: functional
Conditions: Homo sapiens
Would you kindly list LC50 for each of these compounds?
One number for each entry, in µM.

CC(=O)NC1=C(C)C(=O)c2c(nc3n2CCC3OC(C)=O)C1=O (stereo not given) :: 20
Cc1nc2c(n1C)C(=O)c1c(nc(CCl)n1C)C2=O :: 12.3

Below is a list of compounds. For each, state its recorded LC50.
1. CC(=O)OC1CCn2c1nc1c2C(=O)c2c(nc3n2CCC3OC(C)=O)C1=O (stereo not given)
2. Cn1c(CCl)nc2c1C(=O)c1c(nc(CCl)n1C)C2=O
3. O=C1c2nc3n(c2C(=O)c2c1nc1n2CCC1)CCC3

1. 3.98
2. 4.47
3. 39.8

###

Test system: Melanoma cell
Assay: Lethal concentration was determined against Melanoma cell line
Type: functional
Conditions: Homo sapiens
Assay Metric: LC50 (50% lethal concentration)
Give the value; after it, write the unit.

Observe how each entry below is paired with its result.
Cn1c(CCl)nc2c1C(=O)c1c(nc(CCl)n1C)C2=O :: 5.01 µM
Cc1nc2c(n1C)C(=O)c1c(nc(CCl)n1C)C2=O :: 5.89 µM

# per-item lookup of LC50 (50% lethal concentration); items listed below
1. CC(=O)NC1=C(C)C(=O)c2c(nc3n2CCC3OC(C)=O)C1=O (stereo not given)
2. O=C1c2nc3n(c2C(=O)c2c1nc1n2CCC1)CCC3
3. CC(=O)OC1CCn2c1nc1c2C(=O)c2c(nc3n2CCC3OC(C)=O)C1=O (stereo not given)

12.6 µM
15.8 µM
2.57 µM

###

System: Ovarian carcinoma cell
Test: Lethal concentration was determined against Ovarian cancer cell line
Format: functional
Details: Homo sapiens
So basically: is LC50 (50% lethal concentration) under 20 µM? Then true. Not under? Then false.

Solved cases (3 shown):
Cn1c(CCl)nc2c1C(=O)c1c(nc(CCl)n1C)C2=O :: true
O=C1c2nc3n(c2C(=O)c2c1nc1n2CCC1)CCC3 :: false
CC(=O)NC1=C(C)C(=O)c2c(nc3n2CCC3OC(C)=O)C1=O (stereo not given) :: true

Just wondering, is LC50 (50% lethal concentration) of Cc1nc2c(n1C)C(=O)c1c(nc(CCl)n1C)C2=O below 20 µM?
false

Is LC50 (50% lethal concentration) of CC(=O)OC1CCn2c1nc1c2C(=O)c2c(nc3n2CCC3OC(C)=O)C1=O (stereo not given) strictly below 20 µM?
true

Source: ChEMBL document CHEMBL1133703
